compounds and their reported TGI
Tested on: COLO 205 colon
Experimental protocol: NCI tumour cell line growth inhibition, 48 h

Completed entries (count: 6):
CCOC(=O)c1cc2c(OC)cc(OC)cc2oc1=O = > 100 µM
O=C(Nn1c(-c2ccccc2)nc2ccccc2c1=O)c1ccc([N+](=O)[O-])cc1 = > 100 µM
CCc1nc2c(n1CC)C(=O)c1ccccc1C2=O = 43.4 µM
CCOC(=O)Nc1nc(-c2ccccc2)c(C)s1 = > 100 µM
c1ccc2c(CNCCCN3CCN(CCCNCc4cccc5ccccc45)CC3)cccc2c1 = 3.85 µM
Oc1c(Nc2ccccc2)cc2c3c1N=NC=3CCN=2 = > 100 µM

(Q) I have this compound here, `COc1c(O)cc2c(c1CC=C(C)C)OC(=O)c1c(cc(O)c(CC=C(C)C)c1O)O2` , and I need its recorded TGI.
(A) 8.45 µM

(Q) Lookup CC1OC(n2ccc3ccc([N+](=O)[O-])cc32)C(O)C(O)C1O (stereo not drawn)
(A) > 100 µM

(Q) Lookup `O=C(NCCCNc1cc(-c2cn(-c3ccccc3)nc2-c2cccc(O)c2)ccn1)c1ccc(F)cc1`
(A) 3.34 µM

(Q) Lookup `Oc1c(CCl)cc(Cl)cc1Cc1cc(Cl)cc(Cc2cc(Cl)cc(CCl)c2O)c1O`
(A) 26.7 µM

(Q) Lookup OCC(O)COc1ccc(F)cc1 (stereo not drawn)
(A) > 100 µM

(Q) Lookup `CCOC(=O)c1ccc(N(C)Cc2cnc3nc(N)nc(N)c3n2)cc1`
(A) > 100 µM

(Q) Lookup CC1(C)OP(=O)(c2ccccc2)C=C1Br (stereo not drawn)
(A) > 100 µM

(Q) Lookup `O=C(O)[C@@]1(Cc2ccc(O)cc2)C[C@@H]2Cc3ccccc3N2N1`
(A) > 100 µM

(Q) Lookup `CCCC(c1cc(C(C)(C)C)c(O)cc1C)c1cc(C(C)(C)C)c(O)cc1C`
(A) 5.4 µM

(Q) Lookup `CC[C@H]1[C@@H](C)C=C[C@@H](C)N1S(=O)(=O)c1ccc(C)cc1`
(A) > 100 µM

(Q) Lookup `COc1ccc2cc(NC(=O)Nn3cnnc3)ccc2c1`
(A) > 100 µM

(Q) Lookup COc1cc(Br)cc2c1O[C@H]1C(=O)CC3CC21CCN3C (stereo partly drawn)
(A) > 100 µM

(Q) Lookup `CN(CC(=O)O)S(=O)(=O)c1ccc(Cl)cc1`
(A) > 100 µM

(Q) Lookup Cc1ccc(OC2CC(n3cnc4c(=O)[nH]c(Br)nc43)OC2Oc2ccc(C)cc2)cc1 (stereo not drawn)
(A) 82.8 µM

(Q) Lookup N#CCC(=O)N/N=C(/C(=O)Nc1ccccc1)C1C(=O)N(c2ccccc2)N=C1N (stereo not drawn)
(A) > 100 µM

(Q) Lookup CCOC(=O)C1C(c2ccccc2)C2(C#N)C(=N)OC1(C)C2(C#N)C#N (stereo not drawn)
(A) 31.5 µM

(Q) Lookup `Nc1ccc(N=Nc2ccc(-c3ccc(N=Nc4c(S(=O)(=O)O)cc5cc(S(=O)(=O)O)c(N=Nc6ccc([N+](=O)[O-])cc6)c(N)c5c4O)cc3)cc2)c2cc(S(=O)(=O)O)ccc12`
(A) > 100 µM

(Q) Lookup `Cc1cc2c(=O)cc(-c3ccc(O)cc3)oc2c(C(=O)O)c1C`
(A) > 100 µM

(Q) Lookup `Cc1ccc(C)n1-n1c(Cc2ccc(Cl)cc2)n[nH]c1=O`
(A) > 100 µM

(Q) Lookup `COc1cc2cc(Oc3ccc(NC(=O)Nc4ccc(F)c(C(F)(F)F)c4)cc3)c(C)nc2cc1OCCN1CCOCC1`
(A) 4.28 µM

(Q) Lookup `CCNc1nc2c(=O)n(C)c(=O)n(C)c2s1`
(A) > 100 µM

(Q) Lookup NCCSC1(O)C(=O)c2ccccc2-c2ccccc21 (stereo not drawn)
(A) 3.84 µM

(Q) Lookup `Cc1cc2c(=O)cc(-c3ccc(C(=O)O)cc3)oc2c(C(N)=O)c1C`
(A) > 100 µM

(Q) Lookup `CCOC(=O)C(=O)N=Nc1c(O)[nH]c2ccccc12`
(A) > 100 µM

(Q) Lookup `Cc1cc(C)c2c(=O)cc(-c3ccccc3)[nH]c2c1`
(A) > 52 µM

(Q) Lookup CCN(CC)CCC1CCCCN1CC(=O)N1c2ccccc2NC(=O)CC1C (stereo not drawn)
(A) > 100 µM

(Q) Lookup O=c1n(Cc2ccccc2)c2ccccc2n1CC1CS1 (stereo not drawn)
(A) > 100 µM
